// reported Pre-emergence efficacy at 80 g/ha against ECHCG in % for each item listed
system: Echinochloa crus-galli; test: Pre-emergence herbicide efficacy at 80 g/ha, ECHCG; format: in vivo; details: scored visually after about 3 weeks vs untreated controls, 100% = plants have died
The reply should be a number in %, with the unit left off.

Reported Pre-emergence efficacy at 80 g/ha against ECHCG in % of Fc1cnc(Nc2cccc(Cl)c2-c2cc(C(F)F)no2)nc1 [Example 1-62] : 100

Reported Pre-emergence efficacy at 80 g/ha against ECHCG in % of Fc1cnc(Nc2cccc(F)c2-c2cc(C(F)F)no2)nc1 [Example 1-34] : 90

Reported Pre-emergence efficacy at 80 g/ha against ECHCG in % of N#Cc1cccc(Nc2ncc(F)cn2)c1-n1cc(C(F)(F)F)cn1 [Example 1-60] : 80

Continuing:
Reported Pre-emergence efficacy at 80 g/ha against ECHCG in % of Cc1cnn(-c2c(C#N)cccc2Nc2ncc(Cl)cn2)c1 [Example 1-66] : 90

Reported Pre-emergence efficacy at 80 g/ha against ECHCG in % of Cc1cnc(Nc2cccc(C#N)c2-n2cc(C(F)(F)F)cn2)nc1 [Example 1-39] : 100

Reported Pre-emergence efficacy at 80 g/ha against ECHCG in % of FC(F)c1cc(-c2c(Cl)cccc2Nc2ncc(Cl)cn2)on1 [Example 1-61] : 100

----------
system: Amaranthus retroflexus; assay: Pre-emergence herbicide efficacy at 320 g/ha, AMARE; type: in vivo; details: scored visually after about 3 weeks vs untreated controls, 100% = plants have died
Parameter Measured: Pre-emergence efficacy at 320 g/ha against AMARE in %
Answer format: number, then unit.

Examples with their reported Pre-emergence efficacy at 320 g/ha against AMARE in % follow.
Reported Pre-emergence efficacy at 320 g/ha against AMARE in % of N#Cc1cccc(Nc2ncc(Cl)cn2)c1-n1cc(Cl)cn1 : 100%

Reported Pre-emergence efficacy at 320 g/ha against AMARE in % of N#Cc1cccc(Nc2ncc(F)cn2)c1-n1cc(C(F)(F)F)cn1 : 100%

Reported Pre-emergence efficacy at 320 g/ha against AMARE in % of Fc1cccc(Nc2ncccn2)c1-c1cc(C(F)F)no1 : 100%

Continuing:
Reported Pre-emergence efficacy at 320 g/ha against AMARE in % of Fc1cccc(Nc2ncc(Cl)cn2)c1-n1cc(C(F)(F)F)cn1 : 100%

Reported Pre-emergence efficacy at 320 g/ha against AMARE in % of FC(F)(F)CCCc1ccccc1Nc1ncc(Cl)cn1 : 90%

Reported Pre-emergence efficacy at 320 g/ha against AMARE in % of COCc1cnn(-c2c(C#N)cccc2Nc2ncc(Cl)cn2)c1 : 100%

Reported Pre-emergence efficacy at 320 g/ha against AMARE in % of Fc1cnc(Nc2cccc(F)c2-c2cc(C(F)F)no2)nc1 : 100%

Reported Pre-emergence efficacy at 320 g/ha against AMARE in % of N#Cc1cccc(Nc2ccc(Cl)cn2)c1-n1cc(C(F)(F)F)cn1 : 90%

Reported Pre-emergence efficacy at 320 g/ha against AMARE in % of Cc1cnc(Nc2cccc(F)c2-c2cc(C(F)F)no2)nc1 : 100%

Reported Pre-emergence efficacy at 320 g/ha against AMARE in % of COc1cnc(Nc2cccc(F)c2-c2cc(C(F)F)no2)nc1 : 100%

Reported Pre-emergence efficacy at 320 g/ha against AMARE in % of COCc1cnn(-c2c(C#N)cccc2Nc2ncc(F)cn2)c1 : 100%

Reported Pre-emergence efficacy at 320 g/ha against AMARE in % of N#Cc1cccc(Nc2ncccn2)c1-n1cc(C(F)(F)F)cn1 : 100%

Reported Pre-emergence efficacy at 320 g/ha against AMARE in % of Fc1cccc(Nc2ncc(Cl)cn2)c1-c1cc(C(F)F)no1 : 100%

Reported Pre-emergence efficacy at 320 g/ha against AMARE in % of N#Cc1cccc(Nc2ncc(Cl)cn2)c1-c1ccc(F)c(F)c1 : 100%

Reported Pre-emergence efficacy at 320 g/ha against AMARE in % of N#Cc1cccc(Nc2ncc(Cl)cn2)c1-n1cccn1 : 100%

Reported Pre-emergence efficacy at 320 g/ha against AMARE in % of N#Cc1cccc(Nc2ncc(Cl)cn2)c1Cc1ccc(F)cc1 : 100%

Reported Pre-emergence efficacy at 320 g/ha against AMARE in % of N#Cc1cccc(Nc2ccc(F)cn2)c1-n1cc(C(F)(F)F)cn1 : 90%

Reported Pre-emergence efficacy at 320 g/ha against AMARE in % of FC(F)c1cc(-c2ccccc2Nc2ncc(Cl)cn2)on1 : 100%

Reported Pre-emergence efficacy at 320 g/ha against AMARE in % of Fc1cnc(Nc2ccccc2SCCCC(F)(F)F)nc1 : 90%

Reported Pre-emergence efficacy at 320 g/ha against AMARE in % of Cc1cccc(Nc2ncc(Cl)cn2)c1-n1cc(C(F)(F)F)cn1 : 100%

Reported Pre-emergence efficacy at 320 g/ha against AMARE in % of FC(F)(F)c1cnn(-c2ccccc2Nc2ncc(Cl)cn2)c1 : 100%

----------
// reported Pre-emergence efficacy against VERPE for each item listed
system: Veronica persica; experiment: Pre-emergence herbicide efficacy at 80 g/ha, VERPE; type: in vivo
The reply should be a number in %, with the unit left off.

Examples with their reported Pre-emergence efficacy against VERPE follow.
Reported Pre-emergence efficacy against VERPE of Cc1cnn(-c2c(C#N)cccc2Nc2ncc(Cl)cn2)c1 [Example 1-66] : 100

Reported Pre-emergence efficacy against VERPE of Fc1cnc(Nc2cccc(F)c2-c2cc(C(F)F)no2)nc1 [Example 1-34] : 100

Continuing:
Reported Pre-emergence efficacy against VERPE of FC(F)c1cc(-c2ccccc2Nc2ncc(Cl)cn2)on1 [Example 1-31] : 90

Reported Pre-emergence efficacy against VERPE of N#Cc1cccc(Nc2ncc(F)cn2)c1-n1cc(C(F)(F)F)cn1 [Example 1-60] : 80

Reported Pre-emergence efficacy against VERPE of Fc1cccc(Nc2ncc(Cl)cn2)c1-c1cc(C(F)F)no1 [Example 1-33] : 90

Reported Pre-emergence efficacy against VERPE of Fc1cnc(Nc2cccc(Cl)c2-c2cc(C(F)F)no2)nc1 [Example 1-62] : 100

----------
test system: Poa annua; assay: Pre-emergence herbicide efficacy at 320 g/ha, POAAN; type: in vivo; settings: scored visually after about 3 weeks vs untreated controls, 100% = plants have died
// reported Pre-emergence efficacy at 320 g/ha against POAAN in % for each item listed
The reply should be a number in %, with the unit left off.

Examples with their reported Pre-emergence efficacy at 320 g/ha against POAAN in % follow.
Reported Pre-emergence efficacy at 320 g/ha against POAAN in % of Fc1cccc(Nc2ncc(Cl)cn2)c1-c1cc(C(F)F)no1 : 100

Reported Pre-emergence efficacy at 320 g/ha against POAAN in % of N#Cc1cccc(Nc2ncc(F)cn2)c1-c1ccc(F)c(F)c1 : 90

Reported Pre-emergence efficacy at 320 g/ha against POAAN in % of Fc1cnc(Nc2cccc(F)c2-c2cc(C(F)F)no2)nc1 : 100

Reported Pre-emergence efficacy at 320 g/ha against POAAN in % of FC(F)c1cc(-c2ccccc2Nc2ncc(Cl)cn2)on1 : 100

Reported Pre-emergence efficacy at 320 g/ha against POAAN in % of Fc1cccc(Nc2ncccn2)c1-c1cc(C(F)F)no1 : 100

Continuing:
Reported Pre-emergence efficacy at 320 g/ha against POAAN in % of Fc1cnc(Nc2cccc(F)c2-n2cc(C(F)(F)F)cn2)nc1 : 100

Reported Pre-emergence efficacy at 320 g/ha against POAAN in % of COc1cnc(Nc2cccc(F)c2-c2cc(C(F)F)no2)nc1 : 100

Reported Pre-emergence efficacy at 320 g/ha against POAAN in % of Fc1cccc(Nc2ncc(Cl)cn2)c1-n1cc(C(F)(F)F)cn1 : 100

Reported Pre-emergence efficacy at 320 g/ha against POAAN in % of Cc1cnn(-c2c(C#N)cccc2Nc2ncc(Cl)cn2)c1 : 100

Reported Pre-emergence efficacy at 320 g/ha against POAAN in % of Cc1cnc(Nc2cccc(F)c2-c2cc(C(F)F)no2)nc1 : 100

Reported Pre-emergence efficacy at 320 g/ha against POAAN in % of Cc1cccc(Nc2ncc(F)cn2)c1-n1cc(C(F)(F)F)cn1 : 90

Reported Pre-emergence efficacy at 320 g/ha against POAAN in % of N#Cc1cccc(Nc2ncc(Cl)cn2)c1-n1cc(C(F)(F)F)cn1 : 100

Reported Pre-emergence efficacy at 320 g/ha against POAAN in % of Cc1cnn(-c2c(C#N)cccc2Nc2ncc(F)cn2)c1 : 90

Reported Pre-emergence efficacy at 320 g/ha against POAAN in % of Cc1cccc(Nc2ncc(Cl)cn2)c1-n1cc(C(F)(F)F)cn1 : 100

Value source: patent US20250311727A1
